measurement_protocol: Luminescence Cell-Based Dose Retest to Confirm Inhibitors of Cancer Stem Cells. [Related pubchem assays (depositor defined):AID2717, AID2721]
Type: functional
assay_conditions: Homo sapiens
The source made the active and inactive calls.
measurement_type: AC50

Reference set, count: 3
O=S(=O)([N-]c1nc2ccccc2nc1-[n+]1ccc(Cc2ccccc2)cc1)c1ccc(Br)s1 = 6230 nM (active)
CCC(=O)NNc1ccc(Br)cc1 = 1820 nM (active)
O=C1NC(=O)N(Cc2ccccc2)C(=O)/C1=C/C=C/c1ccco1 = 1470 nM (active)

Pending compound:
Query: Return value of AC50 for input `CCOC(=O)c1cnc(-n2nc(C)cc2C)nc1NNc1nc(-c2ccccc2)cc(-c2ccccc2)n1` , no commentary.
Response: 1880 nM (active)

----------
target_or_system: UniProtKB P10635
Sequence (P10635 whole entry): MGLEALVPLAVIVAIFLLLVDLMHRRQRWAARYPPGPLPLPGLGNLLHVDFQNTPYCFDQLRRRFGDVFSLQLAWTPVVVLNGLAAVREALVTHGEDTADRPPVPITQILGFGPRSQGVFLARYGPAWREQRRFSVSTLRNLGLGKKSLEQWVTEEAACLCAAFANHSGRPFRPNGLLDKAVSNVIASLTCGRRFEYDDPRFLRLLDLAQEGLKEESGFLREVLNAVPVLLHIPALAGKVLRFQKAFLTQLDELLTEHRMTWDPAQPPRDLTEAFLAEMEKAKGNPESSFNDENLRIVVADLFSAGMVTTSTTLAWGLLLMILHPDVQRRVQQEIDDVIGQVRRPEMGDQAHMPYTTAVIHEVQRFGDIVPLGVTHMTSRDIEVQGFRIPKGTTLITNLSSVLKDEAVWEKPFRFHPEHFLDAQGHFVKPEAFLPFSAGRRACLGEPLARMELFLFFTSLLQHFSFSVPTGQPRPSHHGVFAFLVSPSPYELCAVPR
measurement_type: AC50

Reference set, count: 3
CCNc1ncc2nc(C)c(=O)n(Cc3cccc(OC)c3)c2n1 = 25.1 µM (inconclusive)
CCN=C(Nc1cccc(F)c1)SC1CC(=O)N(c2ccc(OC)cc2)C1=O (stereo unspecified) = 14.1 µM (inconclusive)
Cc1ccccc1NS(=O)(=O)c1cc(C(=O)Nc2cccc(N(C)S(C)(=O)=O)c2)ccc1C = 17.8 µM (inconclusive)

Query: Return value of AC50 for input `CC(C)n1nnnc1SCC(=O)NCCc1ccccc1` , no commentary.
Response: 25.1 µM (inconclusive)

Query: Return value of AC50 for input `COc1cc([N+](=O)[O-])ccc1NC(=O)CCCOc1cccc(C)c1` , no commentary.
Response: 15.8 µM (inconclusive)

Query: Return value of AC50 for input `COC(=O)CN1CN(c2ccccc2)C2(CCN(Cc3ccc4ccccc4c3)CC2)C1=O` , no commentary.
Response: 20 µM (inconclusive)

----------
target_or_system: Genome polyprotein (dengue virus type 2)
measurement_protocol: flavivirus cap methylation enzyme inhibition – biochemical, confirmation dose response, primary screen (AID 588689)
Type: functional
The source made the active and inactive calls.
IC50 by entry:

Reference set, count: 7
Cc1ccc(CNc2ccc(O)cc2)cc1 = 92.5 µM (active)
COC1=C(OC)C(=O)C(Sc2ccc3ccccc3c2)=CC1=O = 5.09 µM (active)
O=C1/C(=C2\C(=O)N(Cc3ccc(F)cc3)c3ccccc32)SC(=S)N1CCS(=O)(=O)O = 32.5 µM (active)
Oc1nc(/C=C/c2ccc(Cl)cc2Cl)cc(C(F)(F)F)n1 = 68.2 µM (active)
C=CCOc1cccc(C2C(C(=O)c3ccc(C)o3)=C(O)C(=O)N2c2nccs2)c1 (stereo not drawn) = 5.64 µM (active)
COc1cccc(N2C(=O)NC(=O)/C(=C/c3ccc([N+](=O)[O-])s3)C2=O)c1 = 38 µM (active)
Cc1[nH]n(-c2ccccc2)c(=O)c1C(c1ccccc1[N+](=O)[O-])C(C#N)C#N (stereo not drawn) = 86.4 µM (active)

Query: Return value of IC50 for input CCOc1cc(/C=N/NC2=NC(=O)C(CC(=O)O)S2)ccc1OCc1ccc(Cl)cc1 (stereo not drawn) , no commentary.
Response: 47.9 µM (active)

----------
Tested on: Streptococcus
measurement_protocol: GAS UMAA2166 growth inhibition – luminescence, BacTiterGlo, counter-screen for streptokinase expression inhibitor project, dose response (AID 1915);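 further: potency for reduction of bacterial viability or growth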
Format: functional, organism-based
Active and inactive are the calls of the source.
measurement_type: EC50

CC(C)Cn1c2c(c(O)c(C(=O)Nc3ncccc3O)c1=O)CCCC2 = 3.34 µM (active)

Query: Return value of EC50 for input `O=C(NNC(=S)NC(=O)c1cccs1)c1ccc(NC(=O)c2ccccc2)cc1` , no commentary.
Response: 6.3 µM (active)

Query: Return value of EC50 for input `COc1cc2nc(CSc3nc(-c4ccc(F)cc4)cs3)nc(O)c2cc1OC` , no commentary.
Response: > 150 µM (not active)

Query: Return value of EC50 for input `O=C(CSc1nc(O)nc(-c2ccc(Cl)cc2)n1)Nc1cccc(Cl)c1` , no commentary.
Response: > 150 µM (not active)

Query: Return value of EC50 for input `CCn1c(C)nc2cc(C(=O)NNC(=S)NC(=O)c3ccc(OC)cc3)ccc21` , no commentary.
Response: 95.3 µM (active)

Query: Return value of EC50 for input `Cc1cc(C)cc(C(=O)Nc2nc3ccccc3[nH]2)c1` , no commentary.
Response: 7.31 µM (active)
